// data source = ChEMBL document CHEMBL1150769

Test system: MCF7
MEASUREMENT_DESCRIPTION: Antiproliferative activity against human MCF7 cells after 5 days by microplate assay
Assay type: functional, cell-based
CONDITIONS: MCF7, 120 h
Each item that follows carries a reported IC50.

[
  {
    "COMPOUND_STRUCTURE": "CCCCc1ccc2[nH]c(-c3ccc(OC)cc3)c(/C=N/NC(=O)c3ccc(F)cc3)c2c1",
    "TEST_TARGET": "MCF7",
    "UNIT_STRING": "nM",
    "IC50": 84
  },
  {
    "COMPOUND_STRUCTURE": "CCCCc1ccc2[nH]c(-c3ccc(OC)cc3)c(/C=N/NC(=O)c3ccc(Cl)cc3)c2c1",
    "TEST_TARGET": "MCF7",
    "UNIT_STRING": "nM",
    "IC50": 220
  },
  {
    "COMPOUND_STRUCTURE": "CCCCc1ccc2[nH]c(-c3ccc(CC)cc3)c(/C=N/NC(=O)c3ccncc3)c2c1",
    "TEST_TARGET": "MCF7",
    "UNIT_STRING": "nM",
    "IC50": 150
  },
  {
    "COMPOUND_STRUCTURE": "CCCCc1ccc2[nH]c(-c3ccc(C(F)(F)F)cc3)c(/C=N/NC(=O)c3ccccn3)c2c1",
    "TEST_TARGET": "MCF7",
    "UNIT_STRING": "nM",
    "IC50": 310
  },
  {
    "COMPOUND_STRUCTURE": "CCCCc1ccc2[nH]c(-c3ccc(C(F)(F)F)cc3)c(/C=N/NC(=O)c3ccc([N+](=O)[O-])cc3)c2c1",
    "TEST_TARGET": "MCF7",
    "UNIT_STRING": "nM",
    "IC50": 6340
  },
  {
    "COMPOUND_STRUCTURE": "CCCCc1ccc2[nH]c(-c3ccc(C(F)(F)F)cc3)c(/C=N/NC(=O)c3ccncc3)c2c1",
    "TEST_TARGET": "MCF7",
    "UNIT_STRING": "nM",
    "IC50": 100
  },
  {
    "COMPOUND_STRUCTURE": "CCCCc1ccc2[nH]c(-c3ccc(CC)cc3)c(/C=N/NC(=O)c3cccnc3)c2c1",
    "TEST_TARGET": "MCF7",
    "UNIT_STRING": "nM",
    "IC50": 100
  },
  {
    "COMPOUND_STRUCTURE": "CCCCc1ccc2[nH]c(-c3ccc(OC)cc3)c(/C=N/NC(=O)c3ccc(OC)cc3)c2c1",
    "TEST_TARGET": "MCF7",
    "UNIT_STRING": "nM",
    "IC50": 226
  },
  {
    "COMPOUND_STRUCTURE": "CCCCc1ccc2[nH]c(-c3ccc(OC)cc3)c(/C=N/NC(=O)c3ccccc3OC)c2c1",
    "TEST_TARGET": "MCF7",
    "UNIT_STRING": "nM",
    "IC50": 71
  }
]

* * *

Test system: MCF7
MEASUREMENT_DESCRIPTION: Antiproliferative activity against human MCF7 cells after 5 days by microplate assay
Assay type: functional, cell-based
CONDITIONS: MCF7, 120 h
pIC50: −log10 of the molar value.
In this section we review reported pIC50 values for a set of compounds.
READOUT_NAME: pIC50

[
  {
    "COMPOUND_STRUCTURE": "CCCCc1ccc2[nH]c(-c3ccc(OC)cc3)c(/C=N/O)c2c1",
    "READOUT_NAME": "pIC50",
    "QUANTITATIVE_RESULT": 6.67
  },
  {
    "COMPOUND_STRUCTURE": "CCCCc1ccc2[nH]c(-c3ccc(C(F)(F)F)cc3)c(/C=N/NC(=O)c3ccc(Cl)cc3)c2c1",
    "READOUT_NAME": "pIC50",
    "QUANTITATIVE_RESULT": 5.97
  },
  {
    "COMPOUND_STRUCTURE": "CCCCc1ccc2[nH]c(-c3ccc(OC)cc3)c(/C=N/NC(=O)c3cccnc3)c2c1",
    "READOUT_NAME": "pIC50",
    "QUANTITATIVE_RESULT": 7.12
  },
  {
    "COMPOUND_STRUCTURE": "CCCCc1ccc2[nH]c(-c3ccc(OC)cc3)c(/C=N/NC(=O)c3ccccc3)c2c1",
    "READOUT_NAME": "pIC50",
    "QUANTITATIVE_RESULT": 6.89
  },
  {
    "COMPOUND_STRUCTURE": "CCCCc1ccc2[nH]c(-c3ccc(C(F)(F)F)cc3)c(/C=N/NC(=O)c3ccc(OC)cc3)c2c1",
    "READOUT_NAME": "pIC50",
    "QUANTITATIVE_RESULT": 6.21
  },
  {
    "COMPOUND_STRUCTURE": "CCCCc1ccc2[nH]c(-c3ccc(OC)cc3)c(/C=N/NC(=O)c3ccc([N+](=O)[O-])cc3)c2c1",
    "READOUT_NAME": "pIC50",
    "QUANTITATIVE_RESULT": 6.51
  },
  {
    "COMPOUND_STRUCTURE": "CCCCc1ccc2[nH]c(-c3ccc(OC)cc3)c(/C=N/NC(=O)c3ccccn3)c2c1",
    "READOUT_NAME": "pIC50",
    "QUANTITATIVE_RESULT": 6.80
  },
  {
    "COMPOUND_STRUCTURE": "CCCCc1ccc2[nH]c(-c3ccc(C(F)(F)F)cc3)c(/C=N/NC(=O)c3cccnc3)c2c1",
    "READOUT_NAME": "pIC50",
    "QUANTITATIVE_RESULT": 6.59
  },
  {
    "COMPOUND_STRUCTURE": "COc1ccc(-c2[nH]c3ccc(C)cc3c2/C=N/NC(=O)c2ccncc2)cc1",
    "READOUT_NAME": "pIC50",
    "QUANTITATIVE_RESULT": 6.70
  },
  {
    "COMPOUND_STRUCTURE": "CCCCc1ccc2[nH]c(-c3ccc(OC)cc3)c(/C=N/NC(=O)c3ccncc3)c2c1",
    "READOUT_NAME": "pIC50",
    "QUANTITATIVE_RESULT": 7.16
  },
  {
    "COMPOUND_STRUCTURE": "CC[C@]1(O)C[C@H]2CN(CCc3c([nH]c4ccccc34)[C@@](C(=O)OC)(c3cc4c(cc3OC)N(C=O)[C@H]3[C@@](O)(C(=O)OC)[C@H](OC(C)=O)[C@]5(CC)C=CCN6CC[C@]43[C@@H]65)C2)C1",
    "READOUT_NAME": "pIC50",
    "QUANTITATIVE_RESULT": 8.70
  },
  {
    "COMPOUND_STRUCTURE": "CCCCc1ccc2[nH]c(-c3ccc(C(F)(F)F)cc3)c(/C=N/NC(=O)c3ccccc3)c2c1",
    "READOUT_NAME": "pIC50",
    "QUANTITATIVE_RESULT": 6.34
  }
]
